# System: 898857-211-R-J1-PDC complex spheroids, growth % test/control
# TEST DETAILS: Anticancer human tumor 898857-211-R-J1-PDC patient-derived melanoma cell line growth inhibition [RAS]
# APPLIED CONDITIONS: second compound 3.16 µM; first compound 1 µM; hits give low values
MEASURED PARAMETER: viability, T/C (%)
Please give a number only; it is taken to be in %.

>>> reported_value("NC1c2ccccc2OC12CCN(c1cnc3c(N4CCCc5ncccc54)n[nH]c3n1)CC2 (stereo not drawn) + C#Cc1c(F)ccc2cc(O)cc(-c3ncc4c(N5CC6CCC(C5)N6)nc(OCC56CCCN5CC(F)C6)nc4c3F)c12")
99.5

Check the records and state viability, T/C for CC(Nc1ccc2c(c1)OCCn1cc(N3C(=O)OCC3C(F)F)nc1-2)C(N)=O (stereo not drawn) + C#Cc1c(F)ccc2cc(O)cc(-c3ncc4c(N5CC6CCC(C5)N6)nc(OCC56CCCN5CC(F)C6)nc4c3F)c12 96.3

Note down viability, T/C recorded for CCN1CCN(Cc2ccc(Nc3ncc(F)c(-c4cc(F)c5nc(C)n(C(C)C)c5c4)n3)nc2)CC1 + C#Cc1c(F)ccc2cc(O)cc(-c3ncc4c(N5CC6CCC(C5)N6)nc(OCC56CCCN5CC(F)C6)nc4c3F)c12 33.6

###

# Tested on: 898857-211-R-J1-PDC complex spheroids, growth % test/control
# TEST DETAILS: Anticancer human tumor 898857-211-R-J1-PDC cell line growth inhibition [RAS];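 further: spheroids exposed to compound for seven days before readout; 100% = DMSO vehicle control wells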
# APPLIED CONDITIONS: second compound 0.00949 µM; first compound 3.16 µM; hits give low values
MEASURED PARAMETER: viability, T/C (%)
Answer in %, number only, no unit symbol.

Examples with answers:
>>> reported_value("CCC(CC)c1cc(NC2CCC(N)C2)n2nccc2n1 (configuration not stated) + CCn1c(-c2cc(N3CCN(C)CC3)cnc2C(C)OC)c2c3cc(ccc31)-c1csc(n1)CC(NC(=O)C1CC1C)C(=O)N1CCCC(N1)C(=O)OCC(C)(C)C2")
0.8
>>> reported_value("CC1(O)CCCC1n1c(=O)c(C(F)F)cc2cnc(NC3CCN(S(C)(=O)=O)CC3)nc21 (configuration not stated) + CCn1c(-c2cc(N3CCN(C)CC3)cnc2C(C)OC)c2c3cc(ccc31)-c1csc(n1)CC(NC(=O)C1CC1C)C(=O)N1CCCC(N1)C(=O)OCC(C)(C)C2")
37.5

Let us examine a further case.
Give the reported viability, T/C for this compound. Cc1nc(N2CCC3(CC2)COC(C)C3N)c(CO)nc1Sc1ccnc(N)c1Cl (configuration not stated) + CCn1c(-c2cc(N3CCN(C)CC3)cnc2C(C)OC)c2c3cc(ccc31)-c1csc(n1)CC(NC(=O)C1CC1C)C(=O)N1CCCC(N1)C(=O)OCC(C)(C)C2 96.9

###

# Test system: 898857-211-R-J1-PDC complex spheroids, growth % test/control
# TEST DETAILS: Anticancer human tumor 898857-211-R-J1-PDC cell line growth inhibition [RAS]; active means viability on the fitted dose curve at most 10% of control; inactive means the rest;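 further: spheroids exposed to compound for seven days before readout; 100% = DMSO vehicle control wells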
# APPLIED CONDITIONS: second compound 0.01 µM; first compound 0.316 µM
Give one outcome, nothing more. List: active, inactive

Answered cases to consult:
>>> answer_label("C=CC(=O)Nc1cc(Nc2nccc(-c3cn(C)c4ccccc34)n2)c(OC)cc1N(C)CCN(C)C + C=CC(=O)N1CCN(c2nc(OCC3CCCN3C)nc3c(F)c(-c4nc(N)cc(C)c4C(F)(F)F)c(Cl)cc23)C(C)C1")
"inactive"
>>> answer_label("O=C(c1ccc(F)c(F)c1Nc1ccc(I)cc1F)N1CC(O)([C@@H]2CCCCN2)C1 + C=CC(=O)N1CCN(c2nc(OCC3CCCN3C)nc3c(F)c(-c4nc(N)cc(C)c4C(F)(F)F)c(Cl)cc23)C(C)C1")
"inactive"
>>> answer_label("CC1(O)CCCC1n1c(=O)c(C(F)F)cc2cnc(NC3CCN(S(C)(=O)=O)CC3)nc21 (stereo not given) + C=CC(=O)N1CCN(c2nc(OCC3CCCN3C)nc3c(F)c(-c4nc(N)cc(C)c4C(F)(F)F)c(Cl)cc23)C(C)C1")
"inactive"

Which outcome was entered for the molecule Nc1ccn(C2OC(CO)C(O)C2(F)F)c(=O)n1 (stereo not given) + C=CC(=O)N1CCN(c2nc(OCC3CCCN3C)nc3c(F)c(-c4nc(N)cc(C)c4C(F)(F)F)c(Cl)cc23)C(C)C1 in this test? active

Short answer needed: outcome of this test for Cc1nc(N2CCC3(CC2)COC(C)C3N)c(CO)nc1Sc1ccnc(N)c1Cl (stereo not given) + C=CC(=O)N1CCN(c2nc(OCC3CCCN3C)nc3c(F)c(-c4nc(N)cc(C)c4C(F)(F)F)c(Cl)cc23)C(C)C1 ? inactive

Source: PubChem BioAssay AID2060882
